- Study target: Tyrosyl-tRNA synthetase, putative (Trypanosoma cruzi (strain CL Brener))
- Assay overview: Trypanosoma cruzi tyrosyl tRNA synthetase (TcYRS) SOP
- Assay type: functional
- Parameters: scale not given: direction of the effect not stated beside the values
- Conditions: 30 µM
For each of the molecules below, state its Percent Effect.
# include the unit after the value

Exercise: Given the molecule CNc1cc(C2CCCN2Cc2ccccc2OCC(=O)O)ccn1 (centres undefined) , write its reported Percent Effect.
Key: 9.09%

Exercise: Given the molecule CCn1cc(NC(=O)C2CCN(CCOC(C)C)CC2)cn1 , write its reported Percent Effect.
Key: 3.7%

Exercise: Given the molecule Cc1cc(S(=O)(=O)N2CCC(S(C)(=O)=O)CC2)ccc1F , write its reported Percent Effect.
Key: 11.5%

Exercise: Given the molecule Cc1ccc(C)c(C(C(=O)O)N2CCCN(Cc3ccccn3)CC2)c1 (centres undefined) , write its reported Percent Effect.
Key: 14.6%

Exercise: Given the molecule Cc1cccc(-n2c(C)cc(C(=O)N3CCn4c(C)nnc4C3)c2C)c1 , write its reported Percent Effect.
Key: 16.1%

Exercise: Given the molecule Cc1cnn(C2CN(Cc3ccc4c(c3)OCCO4)C2)c1 , write its reported Percent Effect.
Key: 16.1%

Exercise: Given the molecule O=C(NCc1ccoc1)Nc1ccc(CN2CCOC2=O)cc1 , write its reported Percent Effect.
Key: -5.13%

Exercise: Given the molecule CC1CCCN(Cc2csc(-c3ncccn3)n2)CC1 (centres undefined) , write its reported Percent Effect.
Key: 15.8%

Exercise: Given the molecule CC(C)C(=O)N1CCCC(c2ncncc2-c2ccncc2)C1 (centres undefined) , write its reported Percent Effect.
Key: 8.97%

Exercise: Given the molecule CCCn1nc2c(cc1=O)CN(CC(=O)Nc1nnc(C)s1)CC2 , write its reported Percent Effect.
Key: 9.41%

Exercise: Given the molecule O=C(CCc1cccc(F)c1F)N1CCN(Cc2ccco2)CC1 , write its reported Percent Effect.
Key: -2.44%

Exercise: Given the molecule COCCN(Cc1ccc(F)cc1Cl)C(=O)c1cccc[n+]1[O-] , write its reported Percent Effect.
Key: 7.69%

Exercise: Given the molecule CNc1cc(C)nc(C2CN(Cc3ccc(C)nc3)CCO2)c1 (centres undefined) , write its reported Percent Effect.
Key: 3.9%

Exercise: Given the molecule COc1c(C2CCCN2Cc2c(C)noc2C)c(C)nn1C (centres undefined) , write its reported Percent Effect.
Key: 5.13%

Exercise: Given the molecule Cc1noc(C)c1C(=O)N1CC[C@H]2C[C@@H](c3nccs3)O[C@@H]2C1 , write its reported Percent Effect.
Key: 12.8%

Exercise: Given the molecule Cn1cc(C(=O)NC2CCN(Cc3ccn(C)c(=O)c3)CC2)cn1 , write its reported Percent Effect.
Key: -3.61%

Exercise: Given the molecule CC(C)c1nc(C2CCCN2CC(=O)Nc2ccc(Cl)cn2)no1 (centres undefined) , write its reported Percent Effect.
Key: 10.3%

Exercise: Given the molecule Cc1cc(C)n(C2CCCN(C(=O)COCC(F)(F)F)C2)n1 (centres undefined) , write its reported Percent Effect.
Key: -1.21%

Exercise: Given the molecule CC(C)C(=O)N1CCN(Cc2cc(-c3ccncc3)nn2C)CC1 , write its reported Percent Effect.
Key: 11.7%

Exercise: Given the molecule Cc1cnc(N2CC3(CCN(C(=O)c4ccoc4)C3)C2)nc1 , write its reported Percent Effect.
Key: 1.24%

Exercise: Given the molecule CN(C)c1cc(CNC(=O)Nc2ccc(F)cc2)ccn1 , write its reported Percent Effect.
Key: 25.3%

Exercise: Given the molecule Cc1n[nH]c(C)c1C1CCCN1C(=O)NCCSC(C)(C)C (centres undefined) , write its reported Percent Effect.
Key: -2.5%

Exercise: Given the molecule O=C(C1=CCCCC1)N1CCC2(CC1)COC(COc1ccccn1)C2 (centres undefined) , write its reported Percent Effect.
Key: 17.9%

Exercise: Given the molecule Cc1ccc(C(=O)NS(=O)(=O)c2cccc3cnccc23)c(=O)[nH]1 , write its reported Percent Effect.
Key: 15.8%

* * *

For each of the compounds below, state its Percent Effect.
- Study target: Ubiquitin-activating enzyme e1, putative (Leishmania donovani (strain BPK282A1)) (UniProt E9BSI1)
- Sequence (E9BSI1 as listed by the source): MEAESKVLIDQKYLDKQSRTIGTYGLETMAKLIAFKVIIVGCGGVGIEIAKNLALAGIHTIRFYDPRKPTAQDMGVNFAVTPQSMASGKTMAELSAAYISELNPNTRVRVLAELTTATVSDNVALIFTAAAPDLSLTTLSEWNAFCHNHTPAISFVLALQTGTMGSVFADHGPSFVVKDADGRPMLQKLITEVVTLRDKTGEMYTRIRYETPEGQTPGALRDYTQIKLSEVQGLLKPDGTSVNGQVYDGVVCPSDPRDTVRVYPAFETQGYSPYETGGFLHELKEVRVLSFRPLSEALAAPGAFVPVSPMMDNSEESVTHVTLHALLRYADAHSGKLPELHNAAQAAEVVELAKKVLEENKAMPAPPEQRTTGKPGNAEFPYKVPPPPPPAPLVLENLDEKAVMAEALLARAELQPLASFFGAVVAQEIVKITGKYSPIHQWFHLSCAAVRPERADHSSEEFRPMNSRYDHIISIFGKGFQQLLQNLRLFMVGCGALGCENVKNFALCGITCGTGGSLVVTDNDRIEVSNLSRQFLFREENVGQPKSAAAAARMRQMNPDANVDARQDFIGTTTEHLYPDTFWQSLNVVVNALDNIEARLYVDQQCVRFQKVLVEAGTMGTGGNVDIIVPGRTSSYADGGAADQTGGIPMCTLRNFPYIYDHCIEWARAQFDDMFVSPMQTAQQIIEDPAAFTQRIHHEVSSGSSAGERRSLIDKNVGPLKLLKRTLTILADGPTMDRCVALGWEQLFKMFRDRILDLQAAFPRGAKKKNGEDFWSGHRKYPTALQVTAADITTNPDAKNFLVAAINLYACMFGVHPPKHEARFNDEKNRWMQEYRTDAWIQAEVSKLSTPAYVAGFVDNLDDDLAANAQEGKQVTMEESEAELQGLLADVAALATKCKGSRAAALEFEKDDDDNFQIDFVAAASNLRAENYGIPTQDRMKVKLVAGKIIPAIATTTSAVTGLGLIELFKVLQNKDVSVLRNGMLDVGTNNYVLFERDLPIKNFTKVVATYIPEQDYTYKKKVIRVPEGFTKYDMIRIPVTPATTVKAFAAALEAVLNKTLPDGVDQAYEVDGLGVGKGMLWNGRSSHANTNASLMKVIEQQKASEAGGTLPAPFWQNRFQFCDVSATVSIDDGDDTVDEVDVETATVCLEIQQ
- Assay overview: Leishmania donovani Ubiquitin Activating Enzyme (LdE1)
- Assay type: functional
- Design: scale not given: direction of the effect not stated beside the values
- Conditions: 30 µM
Results with a measured potency or affinity are listed apart.
Write the value in % as a bare number.

Exercise: Given the compound CCn1cc(CN2CCCN(C(=O)C3=NN(C)C(=O)CC3)CC2)cn1 , write its reported Percent Effect.
Key: 18.2

Exercise: Given the compound Cc1csc(N2CCCN(C(=O)c3cnns3)CC2)n1 , write its reported Percent Effect.
Key: -2.67

Exercise: Given the compound COc1cccc(-c2noc(C3CCN(Cc4cccs4)C3)n2)c1 (configuration not stated) , write its reported Percent Effect.
Key: 4

Exercise: Given the compound O=C(Nc1cccc(CN2CCOC2=O)c1)N1CCOCC1 , write its reported Percent Effect.
Key: 1.39

Exercise: Given the compound Cn1cc(CNCC2Cn3nnc(-c4ccccc4)c3CO2)cn1 (configuration not stated) , write its reported Percent Effect.
Key: 6.49

Exercise: Given the compound Cc1cnn(C2CCCN(C(=O)Cc3ccc(-n4cccn4)cc3)C2)c1 (configuration not stated) , write its reported Percent Effect.
Key: -2.67

Exercise: Given the compound CCn1cc(CNC2CC(=O)N(CCc3cccc(Cl)c3)C2)cn1 (configuration not stated) , write its reported Percent Effect.
Key: 8.22

Exercise: Given the compound CCNC(c1ccc(OC)cc1)c1cccnc1 (configuration not stated) , write its reported Percent Effect.
Key: -1.27

Exercise: Given the compound CN1[C@H](CN2CCCC2)C[C@@H]2CN(C(=O)c3cccn3C)CC[C@@H]21 , write its reported Percent Effect.
Key: -1.3

Exercise: Given the compound Cc1cc(N2CCC(c3nnc(CN(C)C)n3C3CC3)CC2)ccn1 , write its reported Percent Effect.
Key: -1.39

Exercise: Given the compound CCCn1ccc(C(=O)N2CCOC(c3nc(-c4cccs4)no3)C2)n1 (configuration not stated) , write its reported Percent Effect.
Key: 6.67

Exercise: Given the compound Cc1ccc2c(c1)CCC21CCN(C(=O)CO)CC1 , write its reported Percent Effect.
Key: 5.2

* * *

- Study target: Proteasome subunit beta (Trypanosoma cruzi)
- Assay overview: Trypanosoma cruzi proteasome chymotrypsin-like activity (TcProtChymo) assay. Note: in the data most compounds retested in dose-response had high values.
- Assay type: functional
- Design: scale not given: direction of the effect not stated beside the values
- Conditions: 9.37 µM
Readout type: Percent Effect (%)
Write the value in % as a bare number.

Exercise: Given the compound COCC1CCN(C(=O)c2cccc(S(=O)(=O)NC3CCCC3)c2)C1 (centres undefined) , write its reported Percent Effect.
Key: 17.4

Exercise: Given the compound CCn1ccnc1CN1CCCN(C(=O)Cn2nc(C)cc2C)CC1 , write its reported Percent Effect.
Key: 3.31

Exercise: Given the compound Cc1cccnc1C(=O)N1CCCC(c2[nH]ncc2S(C)(=O)=O)C1 (centres undefined) , write its reported Percent Effect.
Key: 0.985

Exercise: Given the compound CCn1cc(Br)c(C(=O)NCc2cnn(C)c2)n1 , write its reported Percent Effect.
Key: 13

Exercise: Given the compound CCc1csc(C2CCCN(C(=O)c3cnn(CC)c3)C2)n1 (centres undefined) , write its reported Percent Effect.
Key: 6.04

Exercise: Given the compound COc1ccc(COCC(O)CNC(=O)c2cc(C)cc(C)c2)cc1 (centres undefined) , write its reported Percent Effect.
Key: 9.95

Exercise: Given the compound O=C(Nc1ccc(N2CCCC2)nc1)N1CCc2ccccc2C1 , write its reported Percent Effect.
Key: 20.7

Exercise: Given the compound COC(=O)CCC(=O)N1CCc2[nH]nc(-c3ccc(F)c(F)c3)c2C1 , write its reported Percent Effect.
Key: -3.35

Exercise: Given the compound CCNC(=O)c1ccc(CNCc2c(C)nn(C)c2N(C)C)cc1 , write its reported Percent Effect.
Key: 22.3

Exercise: Given the compound CCN1C(=O)CCCC12CCCN(C(=O)c1cnccn1)C2 (centres undefined) , write its reported Percent Effect.
Key: 2.49

Exercise: Given the compound c1ncn(CC2CCCN2Cc2cn3ccsc3n2)n1 (centres undefined) , write its reported Percent Effect.
Key: -4.86

Exercise: Given the compound Cc1c(Br)cccc1C(=O)NC(C)CN1CCCC1=O (centres undefined) , write its reported Percent Effect.
Key: 7.1

Exercise: Given the compound CN(Cc1nccn1CC(F)(F)F)C(=O)c1cccc(C#N)c1 , write its reported Percent Effect.
Key: 3.74

Exercise: Given the compound O=C1NC2(CCN(Cc3nccs3)CC2)CC1c1ccncc1 (centres undefined) , write its reported Percent Effect.
Key: 6.8

Exercise: Given the compound Cn1cc(CN2CCn3cc(CNC(=O)c4cccn4C)nc3C2)cn1 , write its reported Percent Effect.
Key: -4.32

Exercise: Given the compound CCn1nc(C)c2ccn(CC(=O)NC3CCCC3)c(=O)c21 , write its reported Percent Effect.
Key: 5.57

Exercise: Given the compound Cc1nnc2n1CCN(CCOc1ccccc1)C2 , write its reported Percent Effect.
Key: 3.43

Exercise: Given the compound Cc1nc(CCC(=O)NC2CCC2)cc(C2CCNCC2)n1 , write its reported Percent Effect.
Key: 4.67

Exercise: Given the compound O=C(NCc1ccoc1)Nc1ccc(CN2CCOC2=O)cc1 , write its reported Percent Effect.
Key: 15.1

Exercise: Given the compound CN(Cc1cnn(C)c1)C(=O)Cn1c(CS(C)(=O)=O)nc2ccccc21 , write its reported Percent Effect.
Key: 11.2

Exercise: Given the compound COc1c(CNC2CCc3cc(F)ccc32)c(C)nn1C (centres undefined) , write its reported Percent Effect.
Key: -1.23

Exercise: Given the compound CC(C)(C)c1cn2nc(N3CCC[C@@H]3CO)sc2n1 , write its reported Percent Effect.
Key: 6.57

Exercise: Given the compound C[C@H]1C[C@@H]2CCN(C(=O)c3ccncn3)C[C@H]2O1 , write its reported Percent Effect.
Key: 1.27

Exercise: Given the compound CN(C)Cc1ccc(C2CCCCN2C(=O)c2cc(C3CC3)n[nH]2)cc1 (centres undefined) , write its reported Percent Effect.
Key: 11.3
